target: P. falciparum apicoplast DNA polymerase (Pf-apPOL) (Plasmodium falciparum, UniProt Q8ILY1); assay: Fluorescence-based high-throughput DNA polymerase assay (molecular beacon), primary screen and dose-response; format: biochemical; settings: DRC-1; 90'; concentration 80
Sequence (Q8ILY1 entry or part of it): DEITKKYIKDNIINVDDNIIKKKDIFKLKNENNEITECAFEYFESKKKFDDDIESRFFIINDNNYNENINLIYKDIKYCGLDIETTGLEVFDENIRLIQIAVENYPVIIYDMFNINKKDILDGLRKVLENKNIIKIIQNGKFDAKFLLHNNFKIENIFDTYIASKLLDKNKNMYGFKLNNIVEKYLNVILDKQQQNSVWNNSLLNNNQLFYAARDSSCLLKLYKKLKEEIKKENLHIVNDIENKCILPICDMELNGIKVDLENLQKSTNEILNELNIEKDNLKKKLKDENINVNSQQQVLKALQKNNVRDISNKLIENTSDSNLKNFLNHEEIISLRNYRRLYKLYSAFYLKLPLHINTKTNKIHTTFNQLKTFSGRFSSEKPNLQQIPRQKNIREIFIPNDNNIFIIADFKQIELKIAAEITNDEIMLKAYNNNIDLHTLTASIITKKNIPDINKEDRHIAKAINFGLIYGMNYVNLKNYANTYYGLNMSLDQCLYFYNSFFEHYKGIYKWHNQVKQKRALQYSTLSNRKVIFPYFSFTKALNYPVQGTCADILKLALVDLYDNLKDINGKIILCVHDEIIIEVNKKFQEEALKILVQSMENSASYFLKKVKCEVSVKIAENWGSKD

{"columns": ["molecule", "subject-of-test", "% inhibition Apol 90' / %"],
 "data": [
  ["Cc1ccccc1C(=O)N1CCc2c(nc3cc(-c4ccccc4)[nH]n3c2=O)C1 [Molecule 41]", "P. falciparum apicoplast DNA polymerase (Pf-apPOL) (Plasmodium falciparum, UniProt Q8ILY1)", 71.589],
  ["CCCCCCCCCCCCCCCCCC(=O)CCN(C)C [KU0271928]", "P. falciparum apicoplast DNA polymerase (Pf-apPOL) (Plasmodium falciparum, UniProt Q8ILY1)", 71.469],
  ["O=C1C(=Cc2ccncc2)Oc2c1ccc1c2CN(Cc2ccc3c(c2)OCO3)CO1 [KU0199357]", "P. falciparum apicoplast DNA polymerase (Pf-apPOL) (Plasmodium falciparum, UniProt Q8ILY1)", 71.081]
]}

* * *

molecular target: P. falciparum apicoplast DNA polymerase (Pf-apPOL) (Plasmodium falciparum, UniProt Q8ILY1); assay: Fluorescence-based high-throughput DNA polymerase assay (molecular beacon), primary screen and dose-response; format: biochemical; details: DRC-1; 90'; concentration 20
measured-metric: % inhibition Apol 90' (%)

{"columns": ["molecule", "subject-of-test", "val"],
 "data": [
  ["COc1ccccc1CCC(=O)N1CCc2c(nc3cc(-c4ccccc4)[nH]n3c2=O)C1", "P. falciparum apicoplast DNA polymerase (Pf-apPOL) (Plasmodium falciparum, UniProt Q8ILY1)", 73],
  ["O=C1N=C(Nc2cccc(Cl)c2Cl)S/C1=C\\c1ccco1 [Molecule 3, O=C1N=C(S/C/1=C\\c1ccco1)Nc1cccc(c1Cl)Cl]", "P. falciparum apicoplast DNA polymerase (Pf-apPOL) (Plasmodium falciparum, UniProt Q8ILY1)", 68.803],
  ["Cc1cc(C)c2c(O)nc(SCC(=O)c3ccc(O)c(O)c3)nc2n1", "P. falciparum apicoplast DNA polymerase (Pf-apPOL) (Plasmodium falciparum, UniProt Q8ILY1)", 90.5503],
  ["CSC(C)C(=O)C=CN(C)C (stereo not drawn)", "P. falciparum apicoplast DNA polymerase (Pf-apPOL) (Plasmodium falciparum, UniProt Q8ILY1)", 18.7859],
  ["O=C(c1c[nH]c2ncccc12)N1CCCC1 [Molecule 63, O=C(c1c[nH]c2c1cccn2)N1CCCC1]", "P. falciparum apicoplast DNA polymerase (Pf-apPOL) (Plasmodium falciparum, UniProt Q8ILY1)", 39.4898],
  ["COc1ccc(-c2n[nH]cc2Oc2ccc(Cl)cc2)c(O)c1", "P. falciparum apicoplast DNA polymerase (Pf-apPOL) (Plasmodium falciparum, UniProt Q8ILY1)", 52.6198],
  ["COc1ccc(-c2c(C(F)(F)F)nn3c(=O)cc(-c4cccc([N+](=O)[O-])c4)[nH]c23)cc1", "P. falciparum apicoplast DNA polymerase (Pf-apPOL) (Plasmodium falciparum, UniProt Q8ILY1)", 90.3483],
  ["Cc1cc(C)cc(-n2nc3c(c2NC(=O)c2ccco2)CSC3)c1", "P. falciparum apicoplast DNA polymerase (Pf-apPOL) (Plasmodium falciparum, UniProt Q8ILY1)", 72.7845],
  ["CCC(C)NC(=O)c1cc(NC(C)=O)cc2nc(C)ccc12 (stereo not drawn)", "P. falciparum apicoplast DNA polymerase (Pf-apPOL) (Plasmodium falciparum, UniProt Q8ILY1)", 20.1807],
  ["CCCCOC(=O)CCCCCN1C(=O)C(=Cc2ccc(OC)cc2)SC1=S", "P. falciparum apicoplast DNA polymerase (Pf-apPOL) (Plasmodium falciparum, UniProt Q8ILY1)", 19.2951],
  ["COc1ccc2c(c1)CCc1c-2nc2ccc(Br)cc2c1C(=O)O", "P. falciparum apicoplast DNA polymerase (Pf-apPOL) (Plasmodium falciparum, UniProt Q8ILY1)", 41.2946],
  ["CS(=O)(=O)c1cccc(C(=O)Nc2nnc(-c3ccno3)o2)c1", "P. falciparum apicoplast DNA polymerase (Pf-apPOL) (Plasmodium falciparum, UniProt Q8ILY1)", 18.6112],
  ["CN(C)C1C(c2ccccc2)=C(c2ccccc2)SC(c2ccccc2)C1[N+](=O)[O-] (stereo not drawn)", "P. falciparum apicoplast DNA polymerase (Pf-apPOL) (Plasmodium falciparum, UniProt Q8ILY1)", 52.549],
  ["COc1ccc(S(=O)(=O)/N=C2\\NC(=O)/C(=C3\\C(=O)Nc4ccc([N+](=O)[O-])cc43)S2)cc1", "P. falciparum apicoplast DNA polymerase (Pf-apPOL) (Plasmodium falciparum, UniProt Q8ILY1)", 66.8469],
  ["O=C(Cc1cc(=O)[nH]c(SCc2ccccc2)n1)Nc1ccc2c(c1)OCO2", "P. falciparum apicoplast DNA polymerase (Pf-apPOL) (Plasmodium falciparum, UniProt Q8ILY1)", 43.05],
  ["CC(=O)c1cc2c(N)c(/C(N)=N/C#N)sc2nc1C", "P. falciparum apicoplast DNA polymerase (Pf-apPOL) (Plasmodium falciparum, UniProt Q8ILY1)", 14.7865],
  ["Cc1ccc(C(=O)/C=C/C=C/C=C/N(C)C)o1", "P. falciparum apicoplast DNA polymerase (Pf-apPOL) (Plasmodium falciparum, UniProt Q8ILY1)", 58.9151],
  ["COc1cc(Cl)c(C)cc1NC(=O)Cn1ccc2c(=O)[nH]ccc21", "P. falciparum apicoplast DNA polymerase (Pf-apPOL) (Plasmodium falciparum, UniProt Q8ILY1)", 62.017],
  ["Cc1ccc(-n2nnc(C(=O)O)c2-c2ccccn2)c(F)c1", "P. falciparum apicoplast DNA polymerase (Pf-apPOL) (Plasmodium falciparum, UniProt Q8ILY1)", 37.4412],
  ["O=C(NCC1CCN(C2CCCC2)CC1)C(=O)NC1CCCC1", "P. falciparum apicoplast DNA polymerase (Pf-apPOL) (Plasmodium falciparum, UniProt Q8ILY1)", 45.2225],
  ["Cc1ccc(NC(=O)C2CCN(C(=O)c3cc4ccsc4[nH]3)CC2)c(Br)c1", "P. falciparum apicoplast DNA polymerase (Pf-apPOL) (Plasmodium falciparum, UniProt Q8ILY1)", 76],
  ["COc1cccc(Oc2c(C(F)(F)F)oc3cc(OC(=O)N(C)C)ccc3c2=O)c1", "P. falciparum apicoplast DNA polymerase (Pf-apPOL) (Plasmodium falciparum, UniProt Q8ILY1)", 41.7615],
  ["Cc1nn(CC(=O)NCCSCc2ccco2)c(C)c1Br", "P. falciparum apicoplast DNA polymerase (Pf-apPOL) (Plasmodium falciparum, UniProt Q8ILY1)", 9.063],
  ["Cc1ncc(CSc2nc(C(C)(C)C)cs2)c(CO)c1O", "P. falciparum apicoplast DNA polymerase (Pf-apPOL) (Plasmodium falciparum, UniProt Q8ILY1)", 19.9803]
]}

* * *

Biological target: bacteriophage T4 DNA polymerase (Enterobacteria phage T4, UniProt P04415)
Construct: made in house
Sequence (P04415 1-898): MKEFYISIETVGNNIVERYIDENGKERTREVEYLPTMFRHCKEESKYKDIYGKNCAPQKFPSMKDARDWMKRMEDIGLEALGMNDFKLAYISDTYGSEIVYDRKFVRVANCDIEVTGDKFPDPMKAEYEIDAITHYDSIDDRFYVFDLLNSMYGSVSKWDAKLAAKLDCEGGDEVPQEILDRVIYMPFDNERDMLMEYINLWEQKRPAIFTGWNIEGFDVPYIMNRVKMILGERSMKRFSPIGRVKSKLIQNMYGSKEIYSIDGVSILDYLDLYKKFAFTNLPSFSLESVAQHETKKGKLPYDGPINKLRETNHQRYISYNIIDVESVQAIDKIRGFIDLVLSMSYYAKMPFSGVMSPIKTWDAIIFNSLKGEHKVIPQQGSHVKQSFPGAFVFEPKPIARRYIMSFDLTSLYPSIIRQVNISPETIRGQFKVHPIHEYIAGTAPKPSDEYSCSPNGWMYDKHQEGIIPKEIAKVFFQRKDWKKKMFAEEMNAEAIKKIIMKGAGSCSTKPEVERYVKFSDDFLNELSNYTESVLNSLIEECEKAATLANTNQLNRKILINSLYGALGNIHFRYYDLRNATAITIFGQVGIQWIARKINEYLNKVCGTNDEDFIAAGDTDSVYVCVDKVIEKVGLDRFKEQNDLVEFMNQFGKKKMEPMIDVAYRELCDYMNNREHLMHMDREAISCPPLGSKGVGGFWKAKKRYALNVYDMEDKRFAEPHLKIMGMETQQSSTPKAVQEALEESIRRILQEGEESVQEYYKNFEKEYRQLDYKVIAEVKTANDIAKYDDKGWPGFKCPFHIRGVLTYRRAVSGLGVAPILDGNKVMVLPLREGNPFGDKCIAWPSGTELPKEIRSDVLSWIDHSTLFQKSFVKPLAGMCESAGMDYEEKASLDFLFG
Test: Counter-screen against bacteriophage T4 DNA polymerase
Format: biochemical
Conditions: DRC-1; read at 70'; concentration 40

{"columns": ["compound", "% inhibition T4 70' 40"],
 "data": [
  ["C#CC(C=CC)OC(=O)c1ccccc1C(=O)O (centres unmarked)", "17.6446%"],
  ["Cn1nc(-c2nc(-c3ccccc3)no2)c2c1CCN(C(=O)Cc1cccs1)C2", "26%"],
  ["O=C(CCc1csc(NC(=O)Nc2ccccc2)n1)Nc1nc2ccccc2s1", "16.9924%"],
  ["Cn1nc(-c2nnc(-c3ccccc3F)o2)c2c1CCN(C(=O)c1ccccc1Cl)C2", "-0.925%"],
  ["O=C1CSC2=NC3=C(CCc4ccccc43)C(c3cccs3)N12 (centres unmarked)", "19.0347%"],
  ["Cc1ccsc1Cn1c(C)ccc1C", "14.2763%"],
  ["CCCc1ccc(Oc2coc3cc(OC)ccc3c2=O)cc1", "4.61%"],
  ["Cc1ccc(N2CCC(NC(=O)Cc3cccs3)C2=O)cc1C (centres unmarked)", "24.1448%"],
  ["CC(C)CC(C(=O)O)N1C(=O)C2C3C=CC(C2C1=O)C1C(=O)N(C(CC(C)C)C(=O)O)C(=O)C31 (centres unmarked)", "15.5336%"],
  ["Cc1cccc(-c2noc(C(=O)NNC(=O)C(Cl)(Cl)Cl)n2)c1", "4.827%"],
  ["CC(=O)Nc1cc(C(=O)c2cccs2)nn(-c2ccc(Cl)cc2)c1=O", "13.4043%"]
]}
